Exercise: for every item that follows, state its recorded GI50.
# System: UO-31 renal
# Assay Protocol: NCI tumour cell line growth inhibition, 48 h

Record request: GI50 value, item C/C(=N\NC(=O)c1sc(=S)n(C)c1N)c1cc2ccccc2o1 18.3 µM

Do the same for CC1(C)N=C(N)N=C(N)N1c1cccc(CCCCc2cccc(S(=O)(=O)F)c2)c1 please > 100 µM

Do the same for Nc1c(C(=O)c2cccc(CCCN3CCOCC3)c2)cnn1-c1ccc(F)cc1 please > 25 µM

Do the same for CC[C@]1(O)C[C@H]2CN(CCc3c([nH]c4ccccc34)[C@@](C(=O)OC)(c3cc4c(cc3OC)N(C=O)[C@H]3[C@@](O)(C(=O)OC)[C@H](OC(C)=O)[C@]5(CC)C=CCN6CC[C@]43[C@@H]65)C2)C1 please 0.476 µM

Do the same for COc1cc2c3c(n(CCCN)c(=O)c2cc1OC)-c1ccccc1C3=O please 1.8 µM

Do the same for COc1ccc(C2CC(c3cc(OC)c(OC)c(OC)c3)=NO2)cc1OCCCCOc1cc2c(cc1OC)C(=O)N1CCC[C@H]1C=N2 (stereo partly specified) please 2.09 µM

---

Exercise: for every item that follows, state its recorded GI50.
# Tested on: RPMI-8226 leukemia
# Assay Protocol: NCI tumour cell line growth inhibition, 48 h

Record request: GI50 value, item COc1ccc(OC)c(/C=N/NC(=O)Cc2csc3nc(-c4ccc(Br)cc4)cn23)c1 10.3 µM

Do the same for C=C1C(=O)O[C@H]2[C@H]1CC/C(CNC(=O)Cc1c[nH]c3ccccc13)=C\CC[C@@]1(C)O[C@@H]21 please 0.486 µM

Do the same for N=C(N)c1ccc(OCc2cccc(COc3ccc(C(=N)N)cc3)c2)cc1 please 3.11 µM

Do the same for COc1ccc(-c2cc(-c3cc(Cl)ccc3Cl)nc3n[nH]c(N)c23)cc1 please 22.8 µM

Do the same for CCN(CC)CCOCC[C@H]1CC[C@H]2[C@@H]3[C@H](C)Cc4cc(OS(N)(=O)=O)ccc4[C@H]3CC[C@]12C please 0.704 µM

Do the same for OC(c1cccc(-n2ccc(C(F)(F)F)n2)c1)c1cnccc1NC1CCCCCC1 (stereo unspecified) please 1.57 µM

---

# Test system: OVCAR-8 ovarian
# Assay Protocol: NCI tumour cell line growth inhibition, 48 h
Assay Metric: TGI

Record request: TGI value, item C[C@@H]1COCCN1c1cc(C2([S@](C)(=N)=O)CC2)nc(-c2ccnc3[nH]ccc23)n1 > 84.5 µM

Do the same for COc1cc2c3c(n(CCCN)c(=O)c2cc1OC)-c1ccccc1C3=O please 6.65 µM

Do the same for COc1ccc(-c2cc(-c3cc(Cl)ccc3Cl)nc3n[nH]c(N)c23)cc1 please > 100 µM

Do the same for COC(=O)CCc1cc(OC)c(O)c(C(Cc2ccc(OC)c(OC)c2)C(=O)OC)c1 (stereo not given) please > 100 µM

Do the same for Cn1cc(-c2ccc3c(Nc4cccc(NC(=O)Nc5cccc(F)c5)c4)ncnc3c2)cn1 please > 100 µM

Do the same for CC(=O)OC1=c2ccccc2=C(O)C2C1C=NN2C(C)=O (stereo not given) please > 100 µM

Do the same for C/C(CN1C(=O)c2ccccc2C1=O)=N\NS(=O)(=O)c1ccc(C)cc1 please > 100 µM

Do the same for COc1cc2c(cc1OC)-c1cc3ccccc3c[n+]1CC2 please > 100 µM

Do the same for COc1ccc2nc3cc(Cl)ccc3c(NCCCN(Cc3cc(OC)c(OC)c(OC)c3)Cc3cc(OC)c(OC)c(OC)c3)c2c1 please 25.5 µM

Do the same for COc1ccc(OC)c(/C=N/NC(=O)Cc2csc3nc(-c4ccc(Br)cc4)cn23)c1 please 38.2 µM

Do the same for CC1CC(C)C(O)C(C2CC(CC(=O)NC3CCCCC3)CC(=O)O2)C1 (stereo not given) please > 100 µM

Do the same for Cc1ccc(S(=O)(=O)c2c(N)c3nc4ccccc4n3c3nc4ccccc4nc23)cc1 please > 100 µM

Do the same for C/C(=N\NC(=O)c1sc(=S)n(C)c1N)c1cc2ccccc2o1 please 33.8 µM

Do the same for COc1ccc(/C=C2\CCCC(CN(C)C)C2=O)cc1 (stereo not given) please 26.4 µM

Do the same for CCOc1ccccc1NC(=O)CC1C(=O)Nc2ccccc2S1=O (stereo not given) please > 100 µM

Do the same for O=C(O)c1cc2ccccc2c(N=Nc2ccccc2)c1O please > 100 µM

Do the same for O=C(NC1CCN(Cc2ccccc2)CC1)c1cc(-c2ccncc2)nc2ccc(Cl)cc12 please > 72.9 µM

Do the same for CC[C@]12CCCN3CCc4c(n(c5ccccc45)C(=O)C1)[C@@H]32 please > 100 µM

Do the same for CCCCCCCCCCCCNC(C)=O please 44.5 µM

Do the same for CCOC(=O)c1ccc2[nH]c(-c3ccc(S(=O)(=O)F)cc3)cc(=O)c2c1 please > 100 µM

Do the same for CCOC(=O)c1cnn2c1ncc1c(=O)n(NC(N)=O)ccc12 please > 100 µM

Do the same for O=c1cc(NCCCCCO)[nH]c(=O)[nH]1 please > 100 µM

Do the same for Cc1c2cc[n+](C)cc2c(C)c2c1sc1ccccc12 please 4.8 µM

Do the same for CC12CCC3C(CCC4Cc5[nH]c6ccccc6c5CC43C)C1CCC2O (stereo not given) please > 100 µM

Do the same for N=C(N)c1ccc(OCc2cccc(COc3ccc(C(=N)N)cc3)c2)cc1 please 38.4 µM

Do the same for C/C(CC/C(C)=N/O)=N\O please > 100 µM

Do the same for O=C(O)c1ccccc1NC(c1ccccc1)c1ccc2cccnc2c1O (stereo not given) please > 100 µM

Do the same for CCOC(=O)C1(C(N)=O)C(=O)c2ccncc2C1=O (stereo not given) please > 100 µM

Do the same for NCCNc1c2c(c(NCCN)c3c(CO)c[nH]c13)C(=O)c1ccccc1C2=O please 47.2 µM

Do the same for CCCCCC(C)(C)CCC(=O)OC1OC(COC2OC(COC3OC(CO)C(O)C(O)C3O)C(O)C(O)C2O)C(O)C(O)C1O (stereo not given) please > 100 µM

Do the same for CN(C)CCOc1cccc2c1C(=O)c1ccccc1C2=O please 56 µM

Do the same for CC1(C)CCC[C@@]2(C)C1CCC1(C)C(CCc3ccoc3)/C(=C/OS(=O)(=O)O)CCC12 (stereo not given in full) (tested in a mixture with another compound) please > 100 µM

Do the same for Cc1ccc([N+](=O)[O-])cc1NC(=O)Nc1cccc(F)c1 please > 100 µM

Do the same for CC(=N\N)/C(C)=N/N=C(C)/C(C)=N/N=C(C)/C(C)=N/N=C(C)/C(C)=N/N please > 100 µM

Do the same for Cc1cc2nc(C(C)C(=O)c3ccc(Cl)cc3)c(=O)[nH]c2cc1C (stereo not given) please > 100 µM

Do the same for NC(Cc1ccc(S(=O)(=O)O)cc1)C(=O)NC(CCCCNC(=O)NCCCCC(NC(=O)C(N)Cc1ccc(S(=O)(=O)O)cc1)C(=O)NC(Cc1ccc(S(=O)(=O)O)cc1)C(=O)O)C(=O)NC(Cc1ccc(S(=O)(=O)O)cc1)C(=O)O (stereo not given) please > 100 µM

Do the same for COc1c(C=O)c2c(c(OC)c1OC)-c1ccc(OC)c(=O)cc1[C@@H](NC(C)=O)CC2 please > 14.4 µM

Do the same for O=C(Nn1c(-c2ccccc2)nc2ccccc2c1=O)c1ccc(CS)cc1 please > 100 µM

Do the same for COc1cccc2c1C(=O)C=CC2=O please 9.97 µM

Do the same for CC(C)/C=C1\CCC(CN2CCCC2)C1=O (stereo not given) please 16.5 µM

---

# Tested on: A549 NSCLC
# Assay Protocol: NCI tumour cell line growth inhibition, 48 h
Assay Metric: TGI

Param readout = TGI; param system = A549 NSCLC; param query = CCC1=NC(N/N=C/c2ccco2)=N/C1=C\c1ccccc1O ; response: value > 100 µM

Do the same for COc1ccc2oc(=O)cc(C(c3ccc[nH]3)c3ccc[nH]3)c2c1 please 10.8 µM

Do the same for Clc1ncnc(Cl)c1Cl please > 100 µM

Do the same for CS/C(=N\C(=S)N(C)C)N(c1ccccc1)c1nc(=[N+](C)C)ss1 please 22.3 µM

Do the same for CC[C@@]1(N(C)C)C(=O)OCc2c1cc1n(c2=O)Cc2cc3ccccc3nc2-1 please > 100 µM

Do the same for CC(=N\N)/C(C)=N/N=C(C)/C(C)=N/N=C(C)/C(C)=N/N=C(C)/C(C)=N/N please > 100 µM

Do the same for O=C(NC1CCN(Cc2ccccc2)CC1)c1cc(-c2ccncc2)nc2ccc(Cl)cc12 please 54.2 µM

Do the same for CC(C)(C)c1cc(C(=O)Nc2cc(Br)c(Br)cc2S(N)(=O)=O)cc(C(C)(C)C)c1O please 21.3 µM

Do the same for Cc1ccc([N+](=O)[O-])cc1NC(=O)Nc1cccc(F)c1 please 26.2 µM

Do the same for CC1(C)N=C(N)N=C(N)N1c1cccc(CCCCc2cccc(S(=O)(=O)F)c2)c1 please > 100 µM

Do the same for CN(Cc1cnc2nc(N)nc(N)c2n1)c1ccc(C(=O)NC(CCC(=O)O)C(=O)O)cc1C(F)(F)F (stereo not drawn) please > 100 µM

Do the same for O=C1OC(c2ccccc2)=N/C1=C\c1cccnc1 please > 100 µM

Do the same for O=[N+]([O-])c1nc(-c2ccccn2)[nH]c1[N+](=O)[O-] please > 100 µM
